// data source = ChEMBL document CHEMBL1212709

Target: Phospholipase D1 (Homo sapiens)
Sequence (Q13393 whole entry): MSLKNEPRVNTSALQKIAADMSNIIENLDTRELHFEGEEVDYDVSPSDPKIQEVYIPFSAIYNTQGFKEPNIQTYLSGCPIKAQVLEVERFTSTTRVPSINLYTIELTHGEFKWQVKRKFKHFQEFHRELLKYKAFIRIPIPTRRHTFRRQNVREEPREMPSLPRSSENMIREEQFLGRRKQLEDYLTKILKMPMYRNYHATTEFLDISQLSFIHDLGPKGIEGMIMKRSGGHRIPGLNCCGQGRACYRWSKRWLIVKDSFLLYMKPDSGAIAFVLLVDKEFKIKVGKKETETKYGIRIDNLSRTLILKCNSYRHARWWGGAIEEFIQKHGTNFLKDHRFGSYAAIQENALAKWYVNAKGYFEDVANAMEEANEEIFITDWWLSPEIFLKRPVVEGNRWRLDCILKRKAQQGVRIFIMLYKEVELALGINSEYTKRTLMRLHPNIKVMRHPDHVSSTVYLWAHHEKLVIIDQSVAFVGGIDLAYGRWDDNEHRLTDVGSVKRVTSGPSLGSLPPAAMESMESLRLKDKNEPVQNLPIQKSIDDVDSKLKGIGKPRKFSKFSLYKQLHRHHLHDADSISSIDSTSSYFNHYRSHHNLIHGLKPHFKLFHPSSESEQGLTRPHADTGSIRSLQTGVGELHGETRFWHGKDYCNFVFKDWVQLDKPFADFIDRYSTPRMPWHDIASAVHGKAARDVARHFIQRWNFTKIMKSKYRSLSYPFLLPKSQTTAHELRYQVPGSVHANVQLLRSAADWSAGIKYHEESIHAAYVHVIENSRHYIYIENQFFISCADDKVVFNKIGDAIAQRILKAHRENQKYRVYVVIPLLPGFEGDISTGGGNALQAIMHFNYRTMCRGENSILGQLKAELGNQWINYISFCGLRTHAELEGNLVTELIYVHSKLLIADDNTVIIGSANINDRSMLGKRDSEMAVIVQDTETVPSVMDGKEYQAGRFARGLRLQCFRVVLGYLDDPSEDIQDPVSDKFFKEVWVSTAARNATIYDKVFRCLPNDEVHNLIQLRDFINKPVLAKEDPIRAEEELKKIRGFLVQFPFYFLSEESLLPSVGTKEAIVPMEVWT
Definition: the class of an entry is the range in bottom range: < 30 nM; center range: ≥ 30 nM and < 80 nM; top range: ≥ 80 nM that contains its IC50.

Ask: Kindly identify the class of O=C(NCCN1CCC(n2c(=O)[nH]c3ccccc32)CC1)c1cc(Cl)cc(Cl)c1 .
Result: top range

Ask: Kindly identify the class of Cc1ccc(C(=O)NCCN2CCC(n3c(O)nc4ccccc43)CC2)cc1 .
Result: center range

Ask: Kindly identify the class of O=C(NCCN1CCC(n2c(=O)[nH]c3ccccc32)CC1)c1ccc[nH]1 .
Result: center range

Ask: Kindly identify the class of O=C(c1ccc(OCCN2CCCCC2)cc1)c1c(-c2ccc(O)cc2)sc2cc(O)ccc12 .
Result: top range

Ask: Kindly identify the class of COc1ccc(C(=O)NCCN2CCC(n3c(=O)[nH]c4ccccc43)CC2)cc1 .
Result: top range

Ask: Kindly identify the class of O=C(NCCN1CCC(n2c(O)nc3ccccc32)CC1)c1cccc2c1-c1ccccc1C2=O .
Result: bottom range

Ask: Kindly identify the class of O=C(NCCN1CCC(n2c(O)nc3ccccc32)CC1)c1ccc(Cl)cc1 .
Result: bottom range

Ask: Kindly identify the class of CCC(=C(c1ccc(O)cc1)c1ccc(OCCN(C)C)cc1)c1ccccc1 .
Result: top range

Ask: Kindly identify the class of O=C(NCCN1CCC(n2c(=O)[nH]c3ccccc32)CC1)c1cc2cc(F)ccc2[nH]1 .
Result: bottom range
